Data provenance: ChEMBL document CHEMBL1140780

Experiment: Photocytotoxicity against human NCTC 2544 cells irradiated with 1.25 J cm^-2 ultraviolet radiation after 72 hrs by MTT assay
Format: cell-based
readout_name: GI50 at 72 h (µM)
Please give a number only; it is taken to be in µM.

> print(dat)
                                   compound  obs.value
1  Cc1cc(F)ccc1C1=Nc2c(F)cccc2SC(C(=O)O)C1 (centres undefined)          7

# query: GI50 at 72 h of entry COc1cccc2c1C(=O)c1c(O)c3c(c(O)c1C2=O)C[C@@](O)(C(=O)CO)C[C@@H]3O[C@H]1C[C@H](N)[C@H](O)[C@H](C)O1 [DOXORUBICIN]
3.04

* * *

System: HL-60
Experiment: Photocytotoxicity against human HL60 cells irradiated with 2.5 J cm^-2 ultraviolet radiation after 72 hrs by MTT assay
Type: functional
Settings: HL-60, light or radiation study
readout_name: GI50 (µM)
Your answer is read as µM, so omit the unit and give the number.

Below: 5 compounds and their reported GI50.
> print(dat)
                                   compound  obs.value
1  Cc1cc(F)ccc1C1=Nc2c(F)cccc2SC(C(=O)O)C1 (configuration not stated)        0.8
2  COc1ccc2c(c1)SC(C(=O)O)CC(c1ccc(F)cc1C)=N2 (configuration not stated)         10
3  COc1cccc2c1C(=O)c1c(O)c3c(c(O)c1C2=O)C[C@@](O)(C(=O)CO)C[C@@H]3O[C@H]1C[C@H](N)[C@H](O)[C@H](C)O1       1.45
4  Cc1ccc2c(c1)SC(C(=O)O)CC(c1ccc(F)cc1C)=N2 (configuration not stated)         10
5  Cc1cc(F)ccc1C1=Nc2c(Cl)cccc2SC(C(=O)O)C1 (configuration not stated)        6.9

Bench note: what GI50 did Cc1cc(F)ccc1C1=Nc2ccc(Cl)cc2SC(C(=O)O)C1 (configuration not stated) show?
6.8

Same for Cc1cc(F)ccc1C1=Nc2c(Br)cccc2SC(C(=O)O)C1 (configuration not stated)
0.9

* * *

# maps each entry to its GI50 at 72 h
Assay: Photocytotoxicity against human NCTC 2544 cells irradiated with 2.5 J cm^-2 ultraviolet radiation after 72 hrs by MTT assay
Format: cell-based
I only need the number, in nM, no unit after it.

Example cases with answers are listed next.
> print(dat)
                                   compound  unit.spec  obs.value
1  COc1cccc2c1C(=O)c1c(O)c3c(c(O)c1C2=O)C[C@@](O)(C(=O)CO)C[C@@H]3O[C@H]1C[C@H](N)[C@H](O)[C@H](C)O1         nM       1320
2  Cc1cc(F)ccc1C1=Nc2c(Cl)cccc2SC(C(=O)O)C1 (centres undefined)         nM       6900

Now take the following compound into account.
Can you look up the measured GI50 at 72 h of Cc1cc(F)ccc1C1=Nc2c(F)cccc2SC(C(=O)O)C1 (centres undefined) for me?
2600
